system: Cathepsin B (Bos taurus, UniProt P07688)
measurement_kind: Ki (nM)

P. CCNC(=O)C(=O)C(CC)NC(=O)C(CC(C)C)NC(=O)c1cnccn1 (centres undefined)
Q. CCC(NC(=O)C(CC(C)C)NC(=O)OCc1ccccc1)C(=O)C(=O)NCC(O)c1cc(OC)c(OC)c(OC)c1 (centres undefined)
R. CNC(=O)C(=O)C(Cc1ccccc1)NC(=O)C(CC(C)C)NC(=O)OCc1ccccc1 (centres undefined)
Sort these molecules on Ki so the largest reading comes first. Give your ranking as a list of the labels in the requested order.
R, P, Q
(R: 570 nM, P: 350 nM, Q: 220 nM)

###

system: Calpain-1 catalytic subunit (Homo sapiens, UniProt P07384)
protocol_notes: Inhibition of the cysteine protease human Calpain 1
pKi: −log10 of the molar value.
measurement_kind: pKi

I. CCC(NC(=O)C(CC(C)C)NC(=O)OCc1ccccc1)C(=O)C(=O)NCC1CCCO1 (centres undefined)
II. CCC(NC(=O)C(CC(C)C)NC(=O)C(c1ccccc1)c1ccccc1)C(=O)C(=O)NCCCN1CCOCC1 (centres undefined)
Would you let me know which has the greater pKi value, I or II ? Your answer should be the label of the entry you select.
I

###

// Cathepsin B (Bos taurus, UniProt P07688) Ki records
measurement_kind: Ki (µM)

Known Ki results, listed for orientation:
[
  {
    "molecule": "CCC(NC(=O)C(CC(C)C)NC(=O)OCc1ccccc1)C(=O)C(=O)NCC(O)c1cccc(Oc2ccccc2)c1 (stereo unspecified)",
    "Ki, µM": 0.12
  },
  {
    "molecule": "CCC(NC(=O)C(CC(C)C)NC(=O)OCc1ccccc1)C(=O)C(=O)NCC(O)c1cccc(Oc2ccc(Cl)c(Cl)c2)c1 (stereo unspecified)",
    "Ki, µM": 0.1
  },
  {
    "molecule": "CCC(NC(=O)C(CC(C)C)NC(=O)OCc1ccccc1)C(=O)C(=O)NCC(OC)OC (stereo unspecified)",
    "Ki, µM": 0.19
  },
  {
    "molecule": "CCC(NC(=O)C(CC(C)C)NC(=O)OCc1ccccc1)C(=O)C(=O)NCC(O)c1ccc(OCc2ccccc2)cc1 (stereo unspecified)",
    "Ki, µM": 0.11
  },
  {
    "molecule": "CCC(NC(=O)C(CC(C)C)NC(=O)OCc1ccccc1)C(=O)C(=O)NC (stereo unspecified)",
    "Ki, µM": 0.33
  }
]

A. CC(C)CC(NC(=O)OCc1ccccc1)C(=O)NC(Cc1ccccc1)C(=O)C(=O)NCC(O)c1ccc(OCc2ccccc2)cc1 (stereo unspecified)
B. CCNC(=O)C(=O)C(CC)NC(=O)C(CC(C)C)NC(=O)c1ccc2ccccc2n1 (stereo unspecified)
C. CCNC(=O)C(=O)C(CC)NC(=O)C(CC(C)C)NC(=O)c1cccnc1 (stereo unspecified)
D. CCC(NC(=O)C(CC(C)C)NC(=O)OCc1ccccc1)C(=O)C(=O)NCC(O)c1ccc(Oc2ccccc2)cc1 (stereo unspecified)
Rank order required: Ki, descending. Give your ranking as a list of the labels in the requested order.
C, A, D, B
(C: 0.88 µM, A: 0.38 µM, D: 0.21 µM, B: 0.096 µM)

###

system: Calpain-1 catalytic subunit (Homo sapiens, UniProt P07384)
Sequence (P07384 whole entry): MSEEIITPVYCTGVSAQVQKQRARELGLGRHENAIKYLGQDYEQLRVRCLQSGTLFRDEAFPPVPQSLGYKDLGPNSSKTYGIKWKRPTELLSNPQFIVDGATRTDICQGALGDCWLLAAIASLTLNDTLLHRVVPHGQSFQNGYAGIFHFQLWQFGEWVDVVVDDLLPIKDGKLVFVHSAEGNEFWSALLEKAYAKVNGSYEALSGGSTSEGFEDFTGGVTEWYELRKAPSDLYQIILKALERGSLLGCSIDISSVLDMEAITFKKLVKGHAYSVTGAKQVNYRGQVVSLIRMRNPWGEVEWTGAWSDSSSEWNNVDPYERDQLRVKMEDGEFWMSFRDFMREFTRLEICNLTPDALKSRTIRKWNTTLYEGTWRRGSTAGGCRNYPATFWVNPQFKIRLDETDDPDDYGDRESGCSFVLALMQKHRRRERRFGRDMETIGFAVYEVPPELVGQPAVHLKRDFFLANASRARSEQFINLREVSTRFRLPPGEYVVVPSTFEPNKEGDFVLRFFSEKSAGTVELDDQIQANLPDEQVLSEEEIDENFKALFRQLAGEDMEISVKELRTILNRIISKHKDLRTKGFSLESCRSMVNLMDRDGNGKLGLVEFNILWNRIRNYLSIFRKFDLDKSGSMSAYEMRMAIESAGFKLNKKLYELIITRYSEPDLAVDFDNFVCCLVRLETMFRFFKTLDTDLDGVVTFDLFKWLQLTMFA
protocol_notes: Inhibition of the cysteine protease human Calpain 1
measurement_kind: Ki (µM)

Known Ki results, listed for orientation:
[
  {
    "compound": "CCCNC(=O)C(=O)C(Cc1ccccc1)NC(=O)C(CC(C)C)NC(=O)OCc1ccccc1 (stereo not drawn)",
    "measurement_kind": "Ki",
    "unit": "µM",
    "measured": 0.35
  },
  {
    "compound": "CCNC(=O)C(=O)C(CC)NC(=O)C(CC(C)C)NC(=O)c1cccnc1 (stereo not drawn)",
    "measurement_kind": "Ki",
    "unit": "µM",
    "measured": 1.3
  },
  {
    "compound": "CCC(NC(=O)C(CC(C)C)NC(=O)OCc1ccccc1)C(=O)C(=O)NCC(O)c1c(F)c(F)c(F)c(F)c1F (stereo not drawn)",
    "measurement_kind": "Ki",
    "unit": "µM",
    "measured": 0.05
  }
]

a. CCC(NC(=O)C(CC(C)C)NC(=O)OCc1ccccc1)C(=O)C(=O)NCC(O)c1ccc(OCc2ccccc2)cc1 (stereo not drawn)
b. CC(C)CC(NC(=O)C(c1ccccc1)c1ccccc1)C(=O)NC(Cc1ccccc1)C(=O)C(=O)NCC(O)c1ccccc1 (stereo not drawn)
Sorting ascending by Ki, which comes first: a or b ? Your answer should be the label of the entry you select.
a
